Test system: IL-17A-induced G-CSF production in human normal keratinocyte (NHK)
Experiment: NHK assay: IL-17A-induced G-CSF production in normal human keratinocytes
Format: cell-based
Conditions: Homo sapiens, Keratinocyte, 24 h, IL-17A 5 ng/mL, G-CSF by HTRF, average if tested more than once
pIC50: −log10 of the molar value.
Give measured pIC50 for each item. Keep answers brief.

# Compound, pIC50
records = [
    ("O=C(N[C@H](c1cn2ncc(CN3CC(F)(F)CNC3=O)cc2n1)C1CCC(F)(F)CC1)c1conc1COC(F)F [Example 22]", "7.00 to 7.30"),
]

State the recorded pIC50 for every item in the following list.
1. COc1nonc1C(=O)N[C@@H](CCC(C)(C)C(F)(F)F)c1cn2ncc(CN3C[C@@H]4[C@H](CNC3=O)C4(F)F)cc2n1 (relative stereo) [Example 116]
2. COC[C@H](c1cnn2cc([C@@H](NC(=O)c3nonc3C(F)F)C3CCC(F)(F)CC3)nc2c1)N1CC(F)(F)CNC1=O [Example 79]
3. COC[C@H](c1cnn2cc([C@@H](NC(=O)c3ccnn3C(C)C)C3CCC(F)(F)CC3)nc2c1)N1CC(F)(F)CNC1=O [Example 14]

Result block:
1. < 7.00
2. > 7.30
3. > 7.30
